# Test system: HCT-116 colon
# Test Description: NCI tumour cell line growth inhibition, 48 h; in the data active = GI50 below about 0.43 µM; inactive = the rest
Could you please pick one outcome from this set? active, inactive

(Q) Answer briefly: the call reported for "COc1cccc2c1O/C(=C\c1ccc([N+](=O)[O-])s1)C2=O" in this assay.
(A) inactive

(Q) Answer briefly: the call reported for "CCSc1nc(N=Cc2ccccc2O)c2cn[nH]c2n1" in this assay.
(A) inactive

(Q) Answer briefly: the call reported for "Cc1nc2c(Br)cc(Br)cc2c(=O)n1-c1nnc(-c2cccc(Cl)c2Cl)c(N)n1" in this assay.
(A) inactive

(Q) Answer briefly: the call reported for "NC(=O)c1cc(I)ccc1NC(=O)/C=C/c1ccccc1" in this assay.
(A) inactive

(Q) Answer briefly: the call reported for "CCOC(=O)c1c(C)c2c(n1Cc1ccccc1)CSCC2=O" in this assay.
(A) inactive

(Q) Answer briefly: the call reported for "NCCCn1c2c(c3ccc([N+](=O)[O-])cc3c1=O)C(=O)c1cc(I)ccc1-2" in this assay.
(A) active

(Q) Answer briefly: the call reported for "COC(=O)C1=CN(CC2=CC(=O)C(C)=CC2=O)C=C(C(=O)OC)C1c1ccccc1OC" in this assay.
(A) inactive

(Q) Answer briefly: the call reported for "Nc1c(C(=O)Nc2ccccn2)sc2nc3c(cc12)C(=O)CCC3" in this assay.
(A) inactive

(Q) Answer briefly: the call reported for COc1nc(=O)n(C2C=CC(=O)O2)cc1F (stereo not drawn) in this assay.
(A) inactive

(Q) Answer briefly: the call reported for "CNCCCNc1ccnc2cc(Cl)ccc12" in this assay.
(A) inactive

(Q) Answer briefly: the call reported for "NC(N)=Nc1nc2ccccc2o1" in this assay.
(A) inactive

(Q) Answer briefly: the call reported for C=C(C)C(C1C=C(CCC(C=O)=C(C)C)C(=O)O1)C1(OC)C=C(C)C(=O)O1 (stereo not drawn) in this assay.
(A) inactive

(Q) Answer briefly: the call reported for "CCN(Cc1c(F)cccc1OC)c1ccc(CO)c(Cl)c1" in this assay.
(A) active
